# method description: qHTS of Nrf2 Activators; also: nearly all actives have a fitted effect of over 65% in size; also: potency is read from the fitted curve at half-maximal effect
# assay conditions: AREc32 ARE-luciferase reporter (MCF7-derived line), luminescence, 24 h; series mostly up to 46.1 µM
About 1,200 (0.29%) of roughly 410,000 compounds were called active. Inconclusive results (about 2%) are left out. The list comes from a sample in which actives are over-represented; it also holds close analogues and randomly drawn compounds.
readout name: Potency

Below are worked cases with known answers.
compound=CC(=O)c1nn(-c2ccc(OC(F)(F)F)cc2)nc1Nc1ccccc1 observed_value=inactive
compound=O=C(CSc1c2c(nc3ccc(Cl)cc13)CCCC2)NCc1ccco1 observed_value="11.2 µM (active)"
compound=COC(=O)c1sccc1NC(=O)c1csc2c1CCCC2 observed_value="11.2 µM (active)"
compound="Cc1c(CNC(C)c2ccccc2)c(C(=O)O)c(C)n1Cc1c(F)cccc1Cl (stereo unspecified)" observed_value=inactive
compound=CC(=O)c1ccc(NC(=O)CSc2c(C(C)C)cnc3c2c(=O)n(C)c(=O)n3C)cc1 observed_value=inactive

INPUT: Give the measured Potency of CCSc1ncc(Cl)c(C(=O)Nc2c(C(=O)c3ccccc3)oc3ccccc23)n1 .
OUTPUT: inactive
